test_protocol: Oral bioavailability in C57BL/6J mouse at 9.103 mg/kg administered as single dose measured up to 24 hrs
Type: ADME, organism-based
measurement_context: in vivo
quantity_measured: bioavailability

Inquiry: Quickly give me recorded bioavailability for COc1ccc(-c2cc(=O)c3c(O)cc(OP(=O)([O-])[O-])c(-c4cc(-c5cc(=O)c6c(O)cc(OP(=O)([O-])[O-])cc6o5)ccc4OC)c3o2)cc1.[Na+].[Na+].[Na+].[Na+]
Reply text: 86%

====

test_protocol: Stability in human plasma assessed as compound remaining incubated up to 2 hrs by HPLC-MS/MS analysis
Type: ADME, cell-free
measurement_context: read-out: Stability
quantity_measured: remaining at 2 h (%)
Note: unit % is implicit; provide only the numeric part.

Inquiry: Give the value of remaining at 2 h reported for the following: COc1ccc(-c2cc(=O)c3c(O)cc(OP(=O)([O-])[O-])c(-c4cc(-c5cc(=O)c6c(O)cc(OP(=O)([O-])[O-])cc6o5)ccc4OC)c3o2)cc1.[Na+].[Na+].[Na+].[Na+]
Reply text: 94.1
